# TARGET_ENTITY: Left-right determination factor 2 (Homo sapiens) (UniProt O00292)
# Sequence (O00292 whole entry, looked up): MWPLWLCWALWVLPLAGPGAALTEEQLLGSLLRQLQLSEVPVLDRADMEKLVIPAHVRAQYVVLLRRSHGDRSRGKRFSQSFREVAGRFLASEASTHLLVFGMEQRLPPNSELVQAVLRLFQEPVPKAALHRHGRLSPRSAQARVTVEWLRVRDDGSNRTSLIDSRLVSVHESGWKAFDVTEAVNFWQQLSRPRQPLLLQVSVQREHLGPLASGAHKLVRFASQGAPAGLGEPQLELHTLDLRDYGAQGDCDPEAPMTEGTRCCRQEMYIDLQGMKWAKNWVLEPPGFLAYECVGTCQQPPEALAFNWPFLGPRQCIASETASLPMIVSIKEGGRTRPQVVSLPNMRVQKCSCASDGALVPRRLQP
# PROCEDURE_DETAILS: small molecules binding LEFTY2 protein – biochemical, small-molecule microarray, 635 nm fluorescence scan, primary screen (AID 1110)
# APPLIED_CONDITIONS: higher = more signal
REPORTED_ENDPOINT: composite z-score

SMILES_RECORD: COC(=O)C(CC#Cc1ccc2c(c1)[C@]1(C(=O)N2)[C@H](C(=O)N2CCc3cc(OC)c(OC)cc3C2)[C@H]2C(=O)O[C@H](c3ccccc3)[C@H](c3ccccc3)N2[C@@H]1c1ccc(OCCO)cc1)C(=O)OC
EXPERIMENTAL_RESULT: 0.633
//
SMILES_RECORD: NC(=O)[C@H]1[C@@H]2C(=O)O[C@@H](c3ccccc3)[C@@H](c3ccccc3)N2[C@@H](c2ccc(O)cc2)[C@]12C(=O)Nc1ccc(C#CC3(O)CCCCCC3)cc12
EXPERIMENTAL_RESULT: 0.6
//
SMILES_RECORD: CCCC=C(CCC)[C@@H](NC(=O)Cc1ccccc1)c1ccc(C(=O)OC)cc1
EXPERIMENTAL_RESULT: 0.0461
//
SMILES_RECORD: C=C(COC)C(=O)CC[C@H](OC(=O)c1ccccc1-c1ccccc1C(=O)O)c1ccc(CO)o1
EXPERIMENTAL_RESULT: 0.27
